Target: MNK2a (Homo sapiens (Human))
Sequence (Q9HBH9 whole entry): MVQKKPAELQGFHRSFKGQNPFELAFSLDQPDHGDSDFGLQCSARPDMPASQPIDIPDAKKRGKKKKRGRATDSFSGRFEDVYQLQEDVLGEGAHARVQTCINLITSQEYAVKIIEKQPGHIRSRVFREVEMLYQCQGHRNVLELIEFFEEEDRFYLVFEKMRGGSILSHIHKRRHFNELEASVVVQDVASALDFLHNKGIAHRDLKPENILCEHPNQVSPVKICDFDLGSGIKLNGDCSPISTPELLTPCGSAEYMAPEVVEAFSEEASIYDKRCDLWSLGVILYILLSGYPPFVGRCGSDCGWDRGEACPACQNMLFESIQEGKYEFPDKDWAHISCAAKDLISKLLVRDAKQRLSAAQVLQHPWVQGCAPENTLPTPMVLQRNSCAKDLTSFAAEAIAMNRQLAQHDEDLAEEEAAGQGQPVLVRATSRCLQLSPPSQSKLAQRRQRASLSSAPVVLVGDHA
Assay: MNK2a in vitro kinase assay (Assay 2), ADP-Glo
Format: biochemical
Settings: assay 2; read-out: MNK2 IC50
Excerpt: B. MNK2a In Vitro Kinase Assay (Assay 2)
READOUT TYPE: pIC50
Bear in mind: pIC50 is minus log10 of a mol/L concentration; give just that figure.

# count of solved cases: 3
>>> measured_value("O=S1(=Nc2cc(F)c3c(Nc4ccc(F)cc4O[C@@H]4COC[C@@H]4O)ncnc3c2)CCC1 (racemic)")
8.00
>>> measured_value("Cc1c(F)c(N=S(C)(C)=O)cc2ncnc(Nc3ccc(F)cc3O[C@H]3COC[C@@H]3O)c12")
8.10
>>> measured_value("CO[C@@H]1CNC[C@H]1Oc1ncccc1Nc1ncnc2cc(N=S(C)(C)=O)cc(C)c12")
7.48

Now let's try a different one.
Enquiry: Consider the compound CO[C@@H]1COC[C@@H]1Oc1cc(F)ccc1Nc1ncnc2cc(N=S(C)(C)=O)cc(C)c12 . State its measured pIC50.
Return: 9.00

// data source = patent US10093660B2
